I'd be grateful if you could share measured EC50 for these entries.
Target system: T1, mucin domain-deleted Sudan GP (GPdMuc) (Sudan virus (SUDV), UniProt Q7T9D9 33-632)
T1 construct: also called Sudan GPdMuc; GP(S)dMuc
Measurement description: ELISA on coated GP
Quick reminder: number only, in µg/mL, skip the unit.

// EC50 lookup, key: antibody 314L (antibody, V domains shown) VH: EERLVESGGGLVQPGGSLRLSCAASGFTFGDYAMHWVRQVPGKSLEWLSGISWSGYTTYSADSVKGRFTISRDNAKNSLYLQMNRLRPEDTGLYYCVTLIGAIGIKDSLDVWGRGVLVTVSS VL: EVVFTQPHSVSGSPGQMVTISCTRSSGTIDNSYVYWHQQRPGSAPTTVIYNDDQRPSGVPDRFSGSIDSSSNSASLTISGLKSEDEADYYCQSYDSSGWVFGGGTRLTVL
0.31

How about antibody 310L (antibody, V domains shown) VH: EMQLVESGGGLVQPGGSLRLSCAASGFTFDAYAMHWVRQRPGKGLEWISGIIWSGRTTYYADSVKGRFTFSRDNSKNSLYLEMNSLKPEDTALYYCAKDSWNYGVYNSLDVWGRGILVTVSS VL: QSVLTQPPSVSGAPGQRVTISCTGSSSNVGPHYVSWYQHLPGTTPKLLIFQDNKRPSGVSDRFSGSKSASSASLTITGLQTEDEADYYCLSYDSSLNVYIFGSGTRLTVL ?
0.34

And antibody 191L (antibody, V domains shown) VH: EVQLVESGGGLVQPGGSLRLSCAASGFTFSSYGIHWVRQAPGKGLEWVAIISYDGNKKFHADSVKDRFTISRDNSKNMLYLQMNNLKLEDTAVYYCARAYDSGYFAGSVFYYWGQGVLVTVSS VL: EVVFTQPHSVSGSPGQTVTISCTRSSGSIDSEYVQWYQQRPGNAPTTVIYKDNQRPSGVPDRFSGSIDSSSNSASLAISGLKSEDEADYYCQSADGNYHPVFGEGTRLTVL ?
1.74

Then what about the binder antibody 315L (antibody, V domains shown) VH: QVQLQESGPGLVKPSETLSLTCTVSGGSITGNYWTWVRQPPGKGLQYIGRFDAGGKTYYNPPLKSRVSILGDKSKNQVSLNLTSVTVADTGVYYCAREQWGQLLSGSFDVWGRGVLVTVSS VL: SYELTQPPSVSVSPGQTARITCSGDALPDYYAHWYQQKSGQAPMLVIYKDTERPSGIPERFSGSSSGTTVSLTISGVQAEDEADYYCQSGDSSGNHWVFGGGTRLTVL ?
0.12
